Target: T1, LTα1β2 on the surface of PMA-treated II-23 cells (UniProt P01374 35-205, limits assumed)
T1 construct: whole, on cells; also called surface LT
T1 sequence 1: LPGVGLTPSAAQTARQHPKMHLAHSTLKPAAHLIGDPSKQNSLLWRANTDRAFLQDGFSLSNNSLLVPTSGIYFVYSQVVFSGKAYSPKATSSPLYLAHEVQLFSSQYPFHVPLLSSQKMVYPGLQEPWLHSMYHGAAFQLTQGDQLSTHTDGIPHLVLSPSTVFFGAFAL
T1 sequence 2: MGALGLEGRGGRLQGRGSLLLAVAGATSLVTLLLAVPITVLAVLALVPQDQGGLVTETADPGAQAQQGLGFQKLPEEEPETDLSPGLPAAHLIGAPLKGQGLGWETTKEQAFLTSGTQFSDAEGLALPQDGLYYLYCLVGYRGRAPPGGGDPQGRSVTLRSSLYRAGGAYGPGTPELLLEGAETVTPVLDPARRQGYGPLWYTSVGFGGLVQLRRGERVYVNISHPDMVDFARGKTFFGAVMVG
Experiment: competition FACS (II-23 assay, as in FIG. 4): LT-expressing cells, varied antibody, labelled LTβR-Ig; MFI of bound LTβR-Ig
This listing pairs binders with measured IC50 (read off the curve).
assay.readout: IC50 (read off the curve)

{"binder": "LT105 (P2E9.7) (antibody, IgG1, V domains shown, The humanized versions were tested only for solubility; also called mAb LT105) VH: DVQLQESGPGLVKPSQSLSLTCSVTGYSITSGYYWNWIRQFPGNKLEGMGYISYDGSNNYNPSLKNRISITRDSSKNQFFLKLNSVTAEDSGTYYCARDAYSYGMDYWGQGTSVTVSS VL: DIVLTQSPASLAVSLGQRATISCRASESVDNYGISFMHWYQQKPGQPPKLLIYRASNLESGIPARFSGSGSRTDFTLTINPVETDDVATFYCQQSNKDPYTFGGGTKLEIK", "result": "~0.06 µg/mL"}
{"binder": "A0D9 (antibody, V domains shown, Murine monoclonal antibody, kappa light chain; also called mAb A0D9; AOD9) VH: QVQLKQSGPGLVQPSQSLSITCTVSGFSLSTYGVHWVRQFPGKGLEWLGVIWRGGNTNYNAAFMSRLTISKDNSKSQVFFKMNSLQAKDTAIYYCVRNQIYDGYYDYAMDYWGQGTSVTVSS VL: DIKMTQSPSSMYASLGERVTITCKASQDINTYLNWLQQKPGKSPKTLIYRANRLVDGVPSRFSGRGSGQDYSLTISSLEYEDVGIYYCLHYDAFPWTFGGGTKLEIK", "result": "~0.2 µg/mL"}
{"binder": "LT102 (P1G8.2) (antibody, IgG1, V domains shown, also called mAb LT102; LT012) VH: EVKLVESGGGLVKPGGSLKLSCAVSGFTFSDYYMYWIRQTPEKRLEWVATIGDGTSYTHYPDSVQGRFTISRDYATNNLYLQMTSLRSEDTALYYCARDLGTGPFAYWGQGTLVTVSA VL: DVLMTQTPRSLPVSLGDQASISCRSSQNIVHSNGNTYLEWYLQKPGQSPKLLIYKVSNRFSGVPDRFSGSGSGTDFTLKISRVEAEDLGVYYCFQGSHFPWTFGGGTKLEIK", "result": "~0.4 µg/mL"}
{"binder": "LT107 (P5C4.1) (antibody, V domains shown, Murine monoclonal antibody, kappa light chain; also called mAb LT107) VH: QVQLKQSGPGLVQPSQNLSITCTVSGFSLTNYGIHWIRQPPGKGLEWLGVIWSGGSTDHNAAFISRLSISKDNSKSQVFFTMNSLEVDDTAIYYCARNRAYYRYEGGMDYWGQGTSVTVSS VL: DIKMTQSPSSMYASLGERVTITCKASQDINTYLNWFQQKPGKSPMTLIYRADRLLDGVPSRFSGSGSGQDYSLTISSLEDEDMGIYYCQQYDDFPLTFGAGTKLELK", "result": "~0.03 µg/mL"}
